biological target: chimera RXFP1-2 (extracellular domain of RXFP1, transmembrane domain of RXFP2) (Homo sapiens); construct: other: RXFP1-2 chimera; Emax; normalized to 2 μM forskolin cAMP response as 100% activity; fused on or other part: FLAG tag; The RXFP1 extracellular domain is the N-terminal part of the chimera and the RXFP2 transmembrane domain is the C-terminal part; Q9HBX9 (Relaxin receptor 1); assay: HTRF cAMP assay in HEK293T cells transiently transfected with chimera RXFP1-2; format: cell-based; details: RXFP1-2 chimera; read-out: EC50 (μM or nM)

- Structure as smiles: "O=C1Nc2ccc(-c3cc(C(F)(F)F)cc(C(F)(F)F)c3)cc2C(=O)N2CCN(C(=O)COc3ccc(OC(F)(F)F)cc3I)C[C@@H]12"
  Readout unit: "µM"
  EC50: 0.016

====

assay: Pharmacokinetic study in female mice (plasma, liver, bone); type: in vivo, female C57/BL6 mice; details: female, C57/BL6, mouse, liver/plasma, po, 10 mg/kg, PO 10 mg/kg, one administration; read-out: Cmax Ratio (Liver/Plasma)

- Structure as smiles: "O=C1Nc2ccc(-c3cc(C(F)(F)F)cc(C(F)(F)F)c3)cc2C(=O)N2CCN(C(=O)COc3ccc(OC(F)(F)F)cc3I)C[C@@H]12"
  Kp: 8.78

====

molecular target: RXFP2 (Homo sapiens, UniProt Q8WXD0); construct: expressed in transfected cells; assay: HTRF cAMP assay in HEK293T cells stably expressing RXFP2 (HEK-RXFP2); format: cell-based; settings: condition (c): 7,500 cells/well, IBMX omitted; normalized to 100 nM INSL3 cAMP response
Sequence (Q8WXD0 whole entry): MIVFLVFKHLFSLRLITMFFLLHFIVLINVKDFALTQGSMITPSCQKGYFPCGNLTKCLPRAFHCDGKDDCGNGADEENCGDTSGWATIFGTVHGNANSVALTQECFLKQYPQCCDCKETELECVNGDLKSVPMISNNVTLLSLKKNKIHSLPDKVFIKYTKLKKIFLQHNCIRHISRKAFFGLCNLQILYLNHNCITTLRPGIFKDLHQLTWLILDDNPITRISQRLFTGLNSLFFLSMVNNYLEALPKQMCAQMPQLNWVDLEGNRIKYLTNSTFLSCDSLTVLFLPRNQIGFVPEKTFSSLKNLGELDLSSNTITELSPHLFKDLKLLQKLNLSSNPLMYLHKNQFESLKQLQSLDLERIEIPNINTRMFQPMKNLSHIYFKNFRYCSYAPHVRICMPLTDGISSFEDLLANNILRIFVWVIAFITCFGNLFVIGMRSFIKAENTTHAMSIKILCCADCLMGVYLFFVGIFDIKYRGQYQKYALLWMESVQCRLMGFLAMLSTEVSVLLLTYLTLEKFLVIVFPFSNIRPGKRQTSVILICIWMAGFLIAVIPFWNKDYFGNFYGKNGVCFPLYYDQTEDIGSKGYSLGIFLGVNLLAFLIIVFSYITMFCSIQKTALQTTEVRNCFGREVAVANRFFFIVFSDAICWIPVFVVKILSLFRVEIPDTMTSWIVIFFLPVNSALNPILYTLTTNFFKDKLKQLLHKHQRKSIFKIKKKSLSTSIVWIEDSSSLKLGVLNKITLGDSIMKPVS
# % EFF vs. 100 nM INSL3 (c) per entry

- Structure as smiles: "O=C1Nc2ccc(-c3cc(C(F)(F)F)cc(C(F)(F)F)c3)cc2C(=O)N2CCN(C(=O)COc3ccc(OC(F)(F)F)cc3I)C[C@@H]12"
  Tested on: "RXFP2 (Homo sapiens, UniProt Q8WXD0)"
  % EFF vs. 100 nM INSL3 (c): "87.28-147.65%"
- Structure as smiles: "Cc1cc(-c2ccc3c(c2)C(=O)N2CCN(C(=O)COc4ccc(OC(F)(F)F)cc4Br)C[C@H]2C(=O)N3)cc(C(F)(F)F)c1"
  Tested on: "RXFP2 (Homo sapiens, UniProt Q8WXD0)"
  % EFF vs. 100 nM INSL3 (c): "45.16-86.79%"
- Structure as smiles: "O=C1Nc2ccc(-c3cccc(C(F)(F)F)c3)cc2C(=O)N2CCN(C(=O)COc3ccc(OC(F)(F)F)cc3Br)C[C@@H]12"
  Tested on: "RXFP2 (Homo sapiens, UniProt Q8WXD0)"
  % EFF vs. 100 nM INSL3 (c): "38.35-49.8%"

====

# EC50 per entry
Target: RXFP2 (Homo sapiens, UniProt Q8WXD0)
Construct: expressed in transfected cells
Assay: HTRF cAMP assay in HEK293T cells stably expressing RXFP2 (HEK-RXFP2)
Format: cell-based
Details: condition (b): 10,000 cells/well, IBMX 200 μM
Method: Compound efficacy and EC50 were determined by measuring cAMP induction in vitro. HEK293T cells stably expressing RXFP2 (HEK-RXFP2) produce cAMP when RXFP2 is activated, which can be measured in an antibody-based immunoassay utilizing a fluorescent readout (cAMP Gs HiRange Kit, PerkinElmer, Waltham, MA). […] When EC50 could not be calculated from the dose-response curve, EC50 is listed as not determined (ND).

- Molecule: "Cc1cc(-c2ccc3c(c2)C(=O)N2CCN(C(=O)COc4ccc(OC(F)(F)F)cc4Cl)CC2C(=O)N3)cc(C(F)(F)F)c1 (centres unmarked)"
  EC50: "84.2 to 219 nM"
- Molecule: "Cc1cc(OC(F)(F)F)ccc1OCC(=O)N1CCN2C(=O)c3cc(-c4cc(F)cc(C(F)(F)F)c4)ccc3NC(=O)[C@@H]2C1"
  EC50: "36 to 54.5 nM"
- Molecule: "Cc1cc(-c2ccc3c(c2)C(=O)N2CCN(C(=O)COc4ccc(OC(F)(F)F)cc4Br)C[C@H]2C(=O)N3)cc(C(F)(F)F)c1"
  EC50: "23.6 to 50.2 nM"
- Molecule: "Cc1ccc(C(F)(F)F)cc1-c1ccc2c(c1)C(=O)N1CCN(C(=O)COc3ccc(OC(F)(F)F)cc3Cl)C[C@H]1C(=O)N2"
  EC50: "67 to 89.4 nM"
- Molecule: "Cc1cc(-c2ccc3c(c2)C(=O)N2CCN(C(=O)COc4ccc(OC(F)(F)F)cc4Cl)C[C@H]2C(=O)N3)cc(C(F)(F)F)c1"
  EC50: "22.2 nM"
- Molecule: "N#Cc1cc(-c2ccc3c(c2)C(=O)N2CCN(C(=O)COc4ccc(OC(F)(F)F)cc4Cl)CC2C(=O)N3)cc(C(F)(F)F)c1 (racemic)"
  EC50: "31.5 nM"
- Molecule: "O=C1Nc2ccc(-c3cc(O)cc(C(F)(F)F)c3)cc2C(=O)N2CCN(C(=O)COc3ccc(OC(F)(F)F)cc3Br)C[C@@H]12"
  EC50: "64.2 nM"
- Molecule: "O=C1Nc2ccc(-c3cccc(C(F)(F)F)c3)cc2C(=O)N2CCN(C(=O)COc3ccc(OC(F)(F)F)cc3Br)C[C@@H]12"
  EC50: "18 to 23.3 nM"

====

target: RXFP2 (Homo sapiens, UniProt Q8WXD0); construct: expressed in transfected cells; assay: HTRF cAMP assay in HEK293T cells stably expressing RXFP2 (HEK-RXFP2); type: cell-based; settings: condition (c): 7,500 cells/well, IBMX omitted

- Molecule: "O=C1Nc2ncc(-c3cc(C(F)(F)F)cc(C(F)(F)F)c3)cc2C(=O)N2CCN(C(=O)COc3ccc(OC(F)(F)F)cc3I)C[C@@H]12 (single isomer, unassigned)"
  EC50: "0.0407 µM"
- Molecule: "O=C1Nc2ccc(-c3cc(C(F)(F)F)cc(C(F)(F)F)c3)cc2C(=O)N2CCN(C(=O)COc3ccc(OC(F)(F)F)cc3Br)C[C@@H]12"
  EC50: "0.167 to 1.57 µM"
- Molecule: "Cc1cc(-c2ccc3c(c2)C(=O)N2CCN(C(=O)COc4ccc(OC(F)(F)F)cc4Br)C[C@H]2C(=O)N3)cc(C(F)(F)F)c1"
  EC50: "0.101 to 0.319 µM"
- Molecule: "O=C1Nc2ccc(-c3cccc(C(F)(F)F)c3)cc2C(=O)N2CCN(C(=O)COc3ccc(OC(F)(F)F)cc3Br)C[C@@H]12"
  EC50: "0.0462 to 0.0737 µM"
- Molecule: "O=C1Nc2ccc(-c3cc(C4CC4)cc(C(F)(F)F)c3)cc2C(=O)N2CCN(C(=O)COc3ccc(OC(F)(F)F)cc3I)C[C@@H]12"
  EC50: "0.0778 µM"
- Molecule: "O=C1Nc2ccc(-c3cc(C(F)(F)F)cc(C(F)(F)F)c3)nc2C(=O)N2CCN(C(=O)COc3ccc(OC(F)(F)F)cc3I)C[C@@H]12 (single isomer, unassigned)"
  EC50: "0.563 µM"
- Molecule: "O=C1Nc2ccc(-c3cc(O)cc(C(F)(F)F)c3F)cc2C(=O)N2CCN(C(=O)COc3ccc(OC(F)(F)F)cc3Br)C[C@@H]12"
  EC50: "0.0621 µM"
- Molecule: "O=C1Nc2ccc(-c3cc(C(F)(F)F)cc(C(F)(F)F)c3)cc2C(=O)N2CCN(C(=O)COc3ccc(OC(F)(F)F)cc3I)C[C@@H]12"
  EC50: "0.128 to 0.568 µM"

====

molecular target: RXFP2 (Homo sapiens, UniProt Q8WXD0); construct: expressed in transfected cells; assay: HTRF cAMP assay in HEK293T cells stably expressing RXFP2 (HEK-RXFP2); assay type: cell-based; details: condition (b): 10,000 cells/well, IBMX 200 μM; normalized to 1 nM INSL3 cAMP response

- Molecule: "O=C1Nc2ccc(-c3cccc(C(F)(F)F)c3)cc2C(=O)N2CCN(C(=O)COc3ccc(OC(F)(F)F)cc3Br)C[C@@H]12"
  Tested on: "RXFP2 (Homo sapiens, UniProt Q8WXD0)"
  % EFF vs. 1 nM INSL3 (b): "113.66-166.88%"
- Molecule: "Cc1cc(-c2ccc3c(c2)C(=O)N2CCN(C(=O)COc4ccc(OC(F)(F)F)cc4Cl)CC2C(=O)N3)cc(C(F)(F)F)c1 (centres unmarked)"
  Tested on: "RXFP2 (Homo sapiens, UniProt Q8WXD0)"
  % EFF vs. 1 nM INSL3 (b): "81.13-152.31%"
- Molecule: "Cc1cc(OC(F)(F)F)ccc1OCC(=O)N1CCN2C(=O)c3cc(-c4cc(F)cc(C(F)(F)F)c4)ccc3NC(=O)[C@@H]2C1"
  Tested on: "RXFP2 (Homo sapiens, UniProt Q8WXD0)"
  % EFF vs. 1 nM INSL3 (b): "95.53-115.85%"
- Molecule: "Cc1ccc(C(F)(F)F)cc1-c1ccc2c(c1)C(=O)N1CCN(C(=O)COc3ccc(OC(F)(F)F)cc3Cl)C[C@H]1C(=O)N2"
  Tested on: "RXFP2 (Homo sapiens, UniProt Q8WXD0)"
  % EFF vs. 1 nM INSL3 (b): "92.5-107.57%"
- Molecule: "Cc1cc(-c2ccc3c(c2)C(=O)N2CCN(C(=O)COc4ccc(OC(F)(F)F)cc4Br)C[C@H]2C(=O)N3)cc(C(F)(F)F)c1"
  Tested on: "RXFP2 (Homo sapiens, UniProt Q8WXD0)"
  % EFF vs. 1 nM INSL3 (b): "149.80-150.94%"
